Test system: SHSY5Y
Test: MTT cell viability assay
Assay type: cell-based
Conditions: Homo sapiens, SH-SY5Y, 24 h, compounds 0.01–40 μM, read-out: In Vitro Cytotoxicity, EC50 ± SD, SHSY5Y
Method: Initially, we phenotypically screened the synthesized compounds over a panel of tumor cell lines composed of HEPG2, A375, SHSY5Y, MCF7, and A549 derived from liver tumor, melanoma, neuroblastoma, breast cancer, and lung adenocarcinoma, respectively. […] Cell viability was established by measuring mitochondrial metabolic activity with MTT. […] The EC50 values were calculated using GraphPad Prism 8.0 software by nonlinear regression of dose–response inhibition.
measurement_type: log10 of EC50 (log10 of the value in µM)

>  <compound>
CC(C)C[C@@H](C(=O)OCc1ccccc1)N1Cc2ccccc2NC1=O [Compound 63]

>  <test_value>
1.37

$$$$
>  <compound>
CC(C)C[C@H]1CNc2ccccc2C(=O)N1Cc1ccc(C(F)(F)F)cc1 [Compound 33]

>  <test_value>
1.13

$$$$
>  <compound>
CC(C)COC(=O)[C@H](Cc1ccccc1)n1c(=O)[nH]c2ccccc2c1=O [Compound 22]

>  <test_value>
1.48

$$$$
>  <compound>
O=C1[C@H](Cc2ccccc2)N(Cc2ccc(C(F)(F)F)cc2)C(=O)c2ccccc2N1Cc1ccc(C(F)(F)F)cc1 [Compound 30]

>  <test_value>
1.57

$$$$
>  <compound>
CC(C)C[C@@H](C(=O)OCc1ccccc1)n1c(=O)[nH]c2ccccc2c1=O [Compound 23]

>  <test_value>
0.54

$$$$
>  <compound>
O=C1N[C@@H](Cc2ccccc2)C(=O)N(Cc2ccc(C(F)(F)F)cc2)c2ccccc21 [Compound 28]

>  <test_value>
1.03

$$$$
>  <compound>
O=c1[nH]cc(F)c(=O)[nH]1 [Compound 5-FU, 5-fluorouracil, reference compound]

>  <test_value>
-1.14

$$$$
>  <compound>
CC(C)C[C@@H](C(=O)NCc1ccccc1)N1Cc2ccccc2OC1=O [Compound 7]

>  <test_value>
1.06

$$$$
>  <compound>
CC(C)COC(=O)[C@H](Cc1ccccc1)N1Cc2ccccc2NC1=O [Compound 64]

>  <test_value>
1.45

$$$$
